- TARGET_OR_SYSTEM: α4β7 integrin (Homo sapiens, UniProt P13612+P26010)
- Construct: monitoring the capture of α4β7 integrin expressing cells on a recombinant MadCAM-1 extracellular domain-coated plate; endogenous in cells; host or cells: RPMI8866 cells
- Sequence (P13612 34-1032): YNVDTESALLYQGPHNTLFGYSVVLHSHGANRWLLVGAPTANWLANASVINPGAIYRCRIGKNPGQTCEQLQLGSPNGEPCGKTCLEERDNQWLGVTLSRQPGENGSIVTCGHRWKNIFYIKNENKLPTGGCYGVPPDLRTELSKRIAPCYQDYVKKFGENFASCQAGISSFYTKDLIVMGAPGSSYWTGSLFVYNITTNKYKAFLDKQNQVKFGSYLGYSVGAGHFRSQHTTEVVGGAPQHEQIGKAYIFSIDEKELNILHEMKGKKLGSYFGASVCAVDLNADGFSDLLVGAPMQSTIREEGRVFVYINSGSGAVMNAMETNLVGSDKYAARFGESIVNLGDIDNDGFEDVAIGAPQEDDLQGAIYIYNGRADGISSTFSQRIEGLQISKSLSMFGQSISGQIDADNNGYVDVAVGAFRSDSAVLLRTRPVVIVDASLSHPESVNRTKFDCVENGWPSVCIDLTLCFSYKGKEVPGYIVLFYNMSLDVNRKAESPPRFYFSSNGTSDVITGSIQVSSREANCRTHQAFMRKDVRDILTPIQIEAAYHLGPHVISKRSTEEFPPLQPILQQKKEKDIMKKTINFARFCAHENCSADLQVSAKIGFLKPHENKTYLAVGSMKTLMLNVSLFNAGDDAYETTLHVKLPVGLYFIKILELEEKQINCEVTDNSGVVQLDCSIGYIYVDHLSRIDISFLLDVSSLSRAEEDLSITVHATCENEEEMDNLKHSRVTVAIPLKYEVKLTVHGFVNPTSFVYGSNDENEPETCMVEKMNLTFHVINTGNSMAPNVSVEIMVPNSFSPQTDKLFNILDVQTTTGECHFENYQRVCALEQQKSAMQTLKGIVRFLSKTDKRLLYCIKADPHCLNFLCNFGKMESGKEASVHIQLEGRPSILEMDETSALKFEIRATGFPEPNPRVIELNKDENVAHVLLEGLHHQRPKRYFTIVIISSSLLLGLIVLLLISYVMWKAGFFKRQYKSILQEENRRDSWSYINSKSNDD
- Sequence (P26010 20-798): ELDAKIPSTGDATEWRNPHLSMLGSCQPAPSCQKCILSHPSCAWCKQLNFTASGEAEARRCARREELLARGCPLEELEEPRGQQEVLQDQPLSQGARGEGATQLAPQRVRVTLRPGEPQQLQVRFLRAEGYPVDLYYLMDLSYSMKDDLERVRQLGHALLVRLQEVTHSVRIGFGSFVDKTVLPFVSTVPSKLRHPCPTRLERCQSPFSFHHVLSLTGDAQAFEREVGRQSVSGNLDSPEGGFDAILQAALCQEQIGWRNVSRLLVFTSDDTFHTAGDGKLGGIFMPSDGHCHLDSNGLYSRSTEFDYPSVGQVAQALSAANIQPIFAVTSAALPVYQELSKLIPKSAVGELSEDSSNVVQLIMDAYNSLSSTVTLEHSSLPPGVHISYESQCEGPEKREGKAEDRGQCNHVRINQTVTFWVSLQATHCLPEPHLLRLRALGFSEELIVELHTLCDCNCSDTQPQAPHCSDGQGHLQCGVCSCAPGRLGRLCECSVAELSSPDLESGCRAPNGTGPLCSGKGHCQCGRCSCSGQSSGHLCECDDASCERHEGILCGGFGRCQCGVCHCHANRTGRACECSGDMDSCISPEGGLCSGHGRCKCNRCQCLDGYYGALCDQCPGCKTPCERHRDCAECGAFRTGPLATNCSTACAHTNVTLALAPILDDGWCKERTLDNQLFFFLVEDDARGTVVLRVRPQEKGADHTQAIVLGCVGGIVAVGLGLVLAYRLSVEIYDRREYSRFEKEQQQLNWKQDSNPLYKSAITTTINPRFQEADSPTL
- MEASUREMENT_PROTOCOL: α4β7 Integrin Cell Capture Assay
- Format: cell-based
- RECORDED_CONDITIONS: capture of α4β7 integrin expressing RPMI8866 cells on recombinant MadCAM-1 extracellular domain-coated plate; DMEM+0.5% FBS+0.5 mM MnCl2; read-out: EC50 α4β7
VALUE_KIND: EC50 (nM)

>>> readout_value("CC[C@@H](Nc1cc(F)c(C(=O)N[C@@H](Cc2ccc(-c3cc4cnccc4n(C)c3=O)c3ccccc23)C(=O)O)c(F)c1)C(F)(F)F")
0.5

1: COc1cc(F)c(F)cc1-c1ccc(C[C@H](NC(=O)c2c(F)cccc2F)C(=O)O)c2ncccc12
2: CC[C@@H](Nc1cc(F)c(C(=O)N[C@@H](Cc2ccc(-c3c(OC)cnn(C)c3=O)c3ccccc23)C(=O)O)c(F)c1)C(F)(F)F (single isomer, unassigned) [Example 136]
Incoming: // max by EC50 over [ 1 , 2 ] Mark your answer with the label of the selected entry.
Outgoing: 1

----------
- TARGET_OR_SYSTEM: α4β7 integrin (Homo sapiens, UniProt P13612+P26010)
- Construct: monitoring the capture of α4β7 integrin expressing cells on a recombinant MadCAM-1 extracellular domain-coated plate; endogenous in cells; host or cells: RPMI8866 cells
- MEASUREMENT_PROTOCOL: α4β7 Integrin Cell Capture Assay
- Assay type: cell-based
- RECORDED_CONDITIONS: capture of α4β7 integrin expressing RPMI8866 cells on recombinant MadCAM-1 extracellular domain-coated plate; DMEM+0.5% FBS+0.5 mM MnCl2; read-out: EC50 α4β7
VALUE_KIND: EC50 (nM)

Observe how each entry below is paired with its result.
>>> readout_value("Cn1c(=O)c(-c2ccc(C[C@H](NC(=O)c3c(Cl)cccc3Cl)C(=O)O)c3ccccc23)c(C(F)(F)F)c2ccccc21 [Example 121]")
3.9
>>> readout_value("O=C(N[C@@H](Cc1ccc(-c2ncc3ccccc3c2Br)c2ccccc12)C(=O)O)c1c(Cl)cccc1Cl [Example 113]")
12.3
>>> readout_value("COc1cnn(C)c(=O)c1-c1ccc(C[C@H](NC(=O)c2c(Cl)cccc2Cl)C(=O)O)c2ncccc12 [Example 69]")
9.2
>>> readout_value("COc1cc(F)cc(C(F)(F)F)c1-c1ccc(C[C@H](NC(=O)c2c(Cl)cccc2Cl)C(=O)O)c2ncccc12 [Example 35]")
53.5

a: O=C(N[C@@H](Cc1ccc(-c2c(Cl)cc(F)cc2Cl)c2ccccc12)C(=O)O)c1c(F)cccc1F [Example 106]
b: CCOCc1cc(OC)c(-c2cnc(C[C@H](NC(=O)c3c(F)cccc3F)C(=O)O)c3cccnc23)c(OC)c1 [Example 167]
c: O=C(N[C@@H](Cc1ccc(-c2ncc3ccccc3c2Br)c2cccnc12)C(=O)O)c1c(Cl)cccc1Cl [Example 25]
d: Cc1cc(C(F)(F)F)c(-c2ccc(C[C@H](NC(=O)c3c(F)cc(N4CCOC[C@@H]4C(F)(F)F)cc3F)C(=O)O)c3ncccc23)c(=O)n1C (single isomer, unassigned) [Example 85]
e: COc1cc(F)cc(Cl)c1-c1ccc(C[C@H](NC(=O)c2c(Cl)cccc2Cl)C(=O)O)c2ncccc12 (single isomer, unassigned) [Example 54]
Incoming: List items by EC50 in falling order. // rank by listing labels in the order requested
Outgoing: b, a, e, c, d
(b: 836 nM, a: 196 nM, e: 38.8 nM, c: 20 nM, d: 3 nM)
